Collected average relative light units (bioluminescence) values appear next to each entry.
# EXPERIMENT: Generation of bioluminescence from luciferin borates upon treatment with hydrogen peroxide (luciferase light reaction)
# Assay type: biochemical
# CONDITION DESCRIPTION: H2O2 15 μM, phosphate buffer pH 8.04, 70 minutes
# Procedure: In this example, luciferin borates were incubated with hydrogen peroxide, and luciferin generation was measured using a light reaction catalyzed by luciferase. An increase in light output (bioluminescence) as a result of treatment of the luciferin borates with hydrogen peroxide indicates generation of luciferin as a result of the reaction with hydrogen peroxide. […]

These recorded examples may help you get a feel for the data.
[[record]]
compound = "O=C(O)C1CSC(c2nc3ccc(OCc4c(B(O)O)ccc5ccccc45)cc3s2)=N1 (stereo not shown)"
reading = "21,486 RLU"

[[record]]
compound = "O=C(O)C1CSC(c2nc3ccc(OCc4ccc(B(O)O)c5ccccc45)cc3s2)=N1 (stereo not shown)"
reading = "3,373,538 RLU"

[[record]]
compound = "O=C(O)C1CSC(c2nc3ccc(OCc4ccc(B(O)O)cc4)cc3s2)=N1 (stereo not shown)"
reading = "4,193,451 RLU"


Now, please, on to the next compound.
Endpoint output: average relative light units (bioluminescence) of CC(Oc1ccc2nc(C3=NC(C(=O)O)CS3)sc2c1)c1ccc(B(O)O)cc1 (stereo not shown) . Value?
18,905 RLU
